Experiment: chemical genetic growth profiling, strain panel (AID 1159580);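 note: tested at 20 µM; growth read once vehicle control cultures reached saturation at 30 °C; 1 = growth at the plate median or of vehicle wells; lower values mean less growth of the strain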
Settings: S. cerevisiae deletion strains, growth OD, locus YHR027C, strain rpn1
Hit rate of the full screen: of about 5,500 compounds, about 2,000 (36%) were called active. Inconclusive results (about 18%) are left out. Cut-off read from the data, not from the text of the source: active = normalized growth mostly below about 0.91 (no sharp cut-off); inconclusive = no clear call, values can overlap the other calls; inactive = mostly above about 0.92. The list shows a part of the results.
// classify into 1 = active, 0 = inactive

Asked: Hi, sorry to bother you, what did the test record for COc1ccc(-c2cc(=O)c3ccccc3o2)cc1OC ?
Given back: 0

Asked: Hi, sorry to bother you, what did the test record for O=c1c2ccccc2[se]n1-c1ccccc1 ?
Given back: 1

Asked: Hi, sorry to bother you, what did the test record for CC(C)(Oc1ccc(Cl)cc1)C(=O)O ?
Given back: 0

Asked: Hi, sorry to bother you, what did the test record for NC(=O)CC[C@@H](N)C(=O)O ?
Given back: 0

Asked: Hi, sorry to bother you, what did the test record for O=C1CN2Cc3c(ccc(Cl)c3Cl)N=C2N1 ?
Given back: 0

Asked: Hi, sorry to bother you, what did the test record for CNCCC=C1c2ccccc2CCc2ccccc21 ?
Given back: 0

Asked: Hi, sorry to bother you, what did the test record for CC(C)Oc1ccc2c(=O)cc(-c3ccccc3)oc2c1 ?
Given back: 0

Asked: Hi, sorry to bother you, what did the test record for COc1ccc(-c2cc(=O)c3c(OC)c(OC)c(OC)c(OC)c3o2)cc1 ?
Given back: 0

Asked: Hi, sorry to bother you, what did the test record for O=c1cc(-c2ccc(O)c(O)c2)oc2ccccc12 ?
Given back: 0

Asked: Hi, sorry to bother you, what did the test record for COc1ccc(-c2cc(=O)c3ccccc3o2)cc1 ?
Given back: 1

Asked: Hi, sorry to bother you, what did the test record for N[C@H](CO)Cc1ccccc1 ?
Given back: 0

Asked: Hi, sorry to bother you, what did the test record for CC1=NCCc2c1[nH]c1cc(O)ccc21 ?
Given back: 0

Asked: Hi, sorry to bother you, what did the test record for CCCN1C[C@H](CSC)C[C@@H]2c3cccc4[nH]cc(c34)C[C@H]21 ?
Given back: 0

Asked: Hi, sorry to bother you, what did the test record for COc1ccc(-c2cc(=O)c3cc(OC)ccc3o2)cc1 ?
Given back: 0

Where do these numbers come from? They come from PubChem BioAssay AID1159580.
